B1: F1*; the commonest letter at each place (parent)
chain: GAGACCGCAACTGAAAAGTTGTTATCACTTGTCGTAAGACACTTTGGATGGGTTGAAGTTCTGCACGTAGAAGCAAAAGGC

- Variants of: B1
- assaySummary: fraction ligated after 30 min (ligated reads / total reads); higher = more ligase activity
- conditionSummary: with F1*sub RNA substrate (template-directed ligation), 42 °C
Cut-off 0.8 on fraction ligated, inclusive. At or above means y; below means n.

In: Reported fraction ligated at or above 0.8? T32C G50T
Out: n

In: Reported fraction ligated at or above 0.8? A36T T44A
Out: y

In: Reported fraction ligated at or above 0.8? A36G T49C
Out: n

In: Reported fraction ligated at or above 0.8? A39C A48G
Out: n
